Just for reference, ChEMBL document CHEMBL4308841 is where these values come from.

tested on: NCI-H322M; test: Growth inhibition of human NCI-H322M cells assessed as cell growth at 0.1 uM incubated for 48 hrs by sulforhodamine B assay relative to control; type: functional; conditions: read-out: Activity
readout name: growth at 0.1 µM

May I ask what growth at 0.1 µM has been recorded for COc1cc(Cl)cc(-c2nn(-c3cccc(NC(=O)c4cccc(C(F)(F)F)c4)c3)cc2-c2ccncc2)c1 ? 95%

Which measured growth at 0.1 µM value corresponds to O=C(Nc1cccc(-n2cc(-c3ccncc3)c(-c3cc(O)cc(Cl)c3)n2)c1)Nc1ccc(Cl)c(C(F)(F)F)c1 ? 101%

# get_value(readout='growth at 0.1 µM', item= O=C(Nc1cccc(-n2cc(-c3ccncc3)c(-c3cc(O)cc(Cl)c3)n2)c1)c1ccc(N2CCOCC2)c(C(F)(F)F)c1 ) 97%

Which measured growth at 0.1 µM value corresponds to COc1cc(Cl)cc(-c2nn(-c3cccc(NC(=O)Nc4cccc(C(F)(F)F)c4)c3)cc2-c2ccncc2)c1 ? 94%

Query (compound): O=C(Nc1cccc(-n2cc(-c3ccncc3)c(-c3cc(O)cc(Cl)c3)n2)c1)Nc1ccc(Cl)c(Cl)c1 ; field requested: growth at 0.1 µM 88%

Report growth at 0.1 µM for COc1cc(Cl)cc(-c2nn(-c3cccc(NC(=O)Nc4ccc(Cl)c(C(F)(F)F)c4)c3)cc2-c2ccncc2)c1 please. 98%
